Values were extracted from PubChem BioAssay (NCI).

System: SNB-75 CNS
test-name: NCI tumour cell line growth inhibition, 48 h
*1 amine or outer side, *2 acyl side, *3 side chain or, on linkers, in order; H or OH if unused. Where a SMILES comes first, the peptide text is derived from it. [ ]: non-standard residue; d: D form. ξ: configuration not given here. X21 = CC[C@@H](C)C(N[*:1])C(=O)[*:2]; ξR = N=C(N)NCCCC(N)C(=O)O; ξI = CCC(C)C(N)C(=O)O; ξL = CC(C)CC(N)C(=O)O; ξK = NCCCCC(N)C(=O)O; ξV = CC(C)C(N)C(=O)O; ξA = CC(N)C(=O)O
measured-parameter: GI50

Reported GI50 for Cc1ccc(Sc2sc(-c3ccccc3)nc2[P+](c2ccccc2)(c2ccccc2)c2ccccc2)cc1 was 210 nM

Reported GI50 for O=C(Nc1ccccc1)Nc1cccc(Oc2nnc(Cl)c3ccccc23)c1 was 1080 nM

Reported GI50 for OCC(O)C(O)C(O)/C=N/Nc1nc2ccccc2nc1-c1ccccc1 (stereo not drawn) was > 100000 nM

Reported GI50 for CCCN(CCSSCCNc1nc(N(C)O)nc(N(C)O)n1)c1nc(N(C)O)nc(N(C)O)n1 was 24400 nM

Reported GI50 for COc1ccc(N(C)c2c3ccccc3nc3[nH]c4ccccc4c23)cc1 was 5190 nM

Reported GI50 for CCSc1nnc(-c2ccc3ccccc3c2O)n1-c1ccc(Cl)cc1 was 65100 nM

Reported GI50 for COc1ccc2c(c1)/C(=C/c1cc(OC)c(OC)c(OC)c1)C(=O)N2C was 2290 nM

Reported GI50 for NC1=Nc2cc(OCCCN3Cc4ccccc4C3)c(OCC3CC3)cc2C12CCCC2 was 1070 nM

Reported GI50 for CNCCCNCCCN1C(=O)c2ccc3c4c(ccc(c24)C1=O)C(=O)N(CCCNCc1ccccc1OC)C3=O was 1110 nM

Reported GI50 for CCC(C)C1NC(=O)C(CC(C)C)NC(=O)C(C)NC(=O)C(C(C)C)NC(=O)C(CCCCN)NC(=O)C(CC(C)C)NC(=O)C(C(C)C)NC(=O)[C@H](C)NC(=O)C(C(C)CC)NC(=O)C(CCCN=C(N)N)NC(=O)C(CCCCN)NC(=O)C(CCCN=C(N)N)NC(=O)C(CCCCN)NC(=O)C([C@H](C)CC)NC(=O)C(CCCCN)NC1=O (stereo partly drawn) (cyclo(A[ξV][ξL][ξK][ξV][ξA][ξL][ξI][ξK][X21][ξK][ξR][ξK][ξR][ξI])) was 1340 nM

Reported GI50 for Cc1[nH]nc2c1N=C(c1ccccc1Cl)c1cc([N+](=O)[O-])ccc1N2 was 21.5 nM

Reported GI50 for CN(C)CCCn1c2nc(=O)[nH]c(=O)c-2nc2cc(Cl)c(Cl)cc21 was 18000 nM

Reported GI50 for COc1cc(OC)c(C(=O)/C=C/c2cccc(OC(C)=O)c2)cc1CC=C(C)C was 4680 nM

###

Tested on: CAKI-1 renal
test-name: NCI tumour cell line growth inhibition, 48 h
measured-parameter: TGI (µM)
Enter your answer as a number in µM; do not include the unit.

Kindly note: CAKI-1 renal, O=[N+]([O-])c1ccc2nc3ccccc3cc2c1 , TGI value reported: 0.0944

Kindly note: CAKI-1 renal, CCN1CCC(O)(c2ccc(Oc3ccc(C)cc3)cc2)C(C(=O)c2ccc(Oc3ccc(C)cc3)cc2)C1 (stereo not drawn) , TGI value reported: 25.8

Kindly note: CAKI-1 renal, COc1ccc(N(C)c2c3ccccc3nc3[nH]c4ccccc4c23)cc1 , TGI value reported: 3.07

Kindly note: CAKI-1 renal, N#Cc1ccc(Oc2nc3ccc(C(F)(F)F)cc3nc2-c2ccccc2)cc1 , TGI value reported: 44.3

Kindly note: CAKI-1 renal, COC1=C(Br)C(=O)C2=C(C1=O)C1C3=C(C(=O)C=CC3=O)C2c2ccccc21 (stereo not drawn) , TGI value reported: 38.4

Kindly note: CAKI-1 renal, NC1=Nc2cc(OCCCN3Cc4ccccc4C3)c(OCC3CC3)cc2C12CCCC2 , TGI value reported: 11.3

Kindly note: CAKI-1 renal, O=C(/C=C/c1ccccc1Cl)c1ccc(Cl)cc1Cl , TGI value reported: 28.4

Kindly note: CAKI-1 renal, COc1ccc2c(c1)/C(=N/OC(C)=O)c1c-2c(=O)[nH]c2ccccc12 , TGI value reported: 25.6

Kindly note: CAKI-1 renal, CN(C)CCCn1c2nc(=O)[nH]c(=O)c-2nc2cc(Cl)c(Cl)cc21 , TGI value reported: 4.66

Kindly note: CAKI-1 renal, Clc1ncc(Cl)c(Cl)n1 , TGI value reported: 3.25

###

Answer each item with its documented TGI.
System: CCRF-CEM leukemia
test-name: NCI tumour cell line growth inhibition, 48 h

Reported TGI for Cc1ccc2c(c1)CNc1ccc(C)cc1CN2 was > 100 µM

Reported TGI for C=C1C[C@@]2(C)C(CC[C@]3(C)C2CC=C2C4CC(C)(C)C[C@@H](OC(=O)/C(C)=C\C)[C@]4(C(=O)O)CC[C@]23C)C(C)(C)C1=O (stereo not given in full) was 22.9 µM

Reported TGI for O=[N+]([O-])c1c2nc3n(c2cc2c1nc1n2CCC1)CCC3 was > 100 µM

Reported TGI for Cc1c(N=Cc2ccc(N(CCC#N)CCC#N)cc2)c(=O)n(-c2ccccc2)n1C was > 100 µM

Reported TGI for Cc1ccc(S(=O)(=O)NC(=O)NC(Cc2ccc(O)c(O)c2)C(=O)O)cc1 (stereo not given) was 63 µM

Reported TGI for COc1ccc(/C=C/NC=O)cc1 was > 100 µM

Reported TGI for N#C/C(=C\c1ccc(Br)cc1)n1nnc2ccccc21 was 16.6 µM

Reported TGI for COc1ccccc1/C=C/C(=O)/C=C/c1ccccc1OC was 9.19 µM

Reported TGI for C1=Nc2ccccc2C=Nc2ccccc2C=Nc2ccccc2C=Nc2ccccc21.[Cl-].[Pt+2] was 67.2 µM

Reported TGI for COc1ccc(OC)c2c(=S)c3ccccc3[nH]c12 was > 86.1 µM

###

System: OVCAR-8 ovarian
test-name: NCI tumour cell line growth inhibition, 48 h
Answer each item with its documented TGI.

Reported TGI for CC(=O)/C=C/c1ccc(C)cc1 was > 100 µM

Reported TGI for O=C(O)C1CCCCC1c1c2ccc(=O)cc-2oc2cc(O)ccc12 (stereo not given) was 90.8 µM

Reported TGI for OCc1ccc(N(CCN2CCCC2)Cc2ccc(F)cc2)cc1Cl was 30.3 µM

Reported TGI for NC(=O)CC(N=C1C(=O)OC(C(O)CO)C1=NC(CC(N)=O)C(=O)O)C(=O)O (stereo not given) was > 100 µM

Reported TGI for O=C(COc1cccc(/C=C2\CSc3ccccc3C2=O)c1)c1ccc(Cl)cc1 was 6.81 µM

Reported TGI for C=C(C)[C@@H]1CCC2=C[C@H](CC(C)=CC3=CC(C)=C(O3)[C@@H]1OC)OC2=O was > 100 µM

Reported TGI for C1COCCOCCOCCOCCO1.CC(=O)[CH-]C(C)=O.CC(=O)[CH-]C(C)=O.CC(=O)[CH-]C(C)=O.[V] was 76.3 µM

Reported TGI for C=CCN(c1cc(OC)c2[nH]cc(C)c2c1[N+](=O)[O-])S(C)(=O)=O was > 100 µM

Reported TGI for CCSc1nnc(-c2ccc3ccccc3c2O)n1-c1ccc(Cl)cc1 was > 100 µM

Reported TGI for COc1ccc(OC)c2c(=S)c3ccccc3[nH]c12 was > 100 µM

Reported TGI for Cc1cc(=O)oc2cc(OS(C)(=O)=O)ccc12 was > 100 µM

Reported TGI for O=C(c1ccc(Cl)cc1)c1ccc(OCCSCCCCCCCCCCSCCOc2ccc(C(=O)c3ccc(Cl)cc3)cc2)cc1 was > 100 µM

Reported TGI for CN(C)CCCn1c2nc(=O)[nH]c(=O)c-2nc2cc(Cl)c(Cl)cc21 was 10.6 µM

Reported TGI for Nc1nc(-c2cccc([N+](=O)[O-])c2)cc(-c2cc(-c3cccc([N+](=O)[O-])c3)nc(N)n2)n1 was > 100 µM

Reported TGI for Cc1ccc(Oc2ccc([N+](=O)[O-])cc2[N+](=O)[O-])c(C)c1 was > 100 µM

Reported TGI for CCOc1ccc2nc(NC(NC(=O)c3cccnc3)(C(F)(F)F)C(F)(F)F)sc2c1 was 88 µM

Reported TGI for COc1ccccc1NC(=O)O/N=C(/Cl)C(C)C was 28.6 µM

Reported TGI for CC1(CC2=C(C(=O)NCCO[Si](C)(C)C(C)(C)C)C3(OCCO3)C2=O)OCCO1 was > 100 µM

Reported TGI for O=C(OCc1ccccc1)N1CCN(C(=O)OCc2ccccc2)CCN(C(=O)OCc2ccccc2)CCN(C(=O)OCc2ccccc2)CCN(C(=O)OCc2ccccc2)CC1 was > 100 µM

Reported TGI for CC(NC(C#N)CC12CC3CC(CC(C3)C1)C2)c1ccccc1 (stereo not given) was > 100 µM

Reported TGI for c1ccc2c(c1)CC1COc3ccccc3C1O2 (stereo not given) was > 100 µM

Reported TGI for C=CC1=C(C)C2=NC1=CC1=NC(=CC3=C(C)C4=C(O)C(C(=O)OC)C(=C5NC(=C2)C(C)C5CCC(=O)OC)C4=N3)C(CC)=C1C (stereo not given) was > 100 µM

Reported TGI for COc1ccccc1-c1cc(=O)c2ccc(OC)c(OC)c2o1 was > 100 µM

Reported TGI for NC1CC(=O)c2sccc21 (stereo not given) was > 100 µM

Reported TGI for Cc1cc(N(CCCl)CCCl)ccc1/C=N/NC(=O)Cc1cc(=O)oc2cc(O)ccc12 was > 100 µM

Reported TGI for CC/C=C/c1cc2cc[nH]c2c2c1C(C)C[C@@H]2C (stereo not given in full) was 66.2 µM

Reported TGI for CC(C)OC(=O)[C@@H](O)[C@H](CO)C1=CC([Si](C)(C)c2ccccc2)=CON1 was > 100 µM

Reported TGI for COc1ccc(N(C)c2c3ccccc3nc3[nH]c4ccccc4c23)cc1 was 7.42 µM

Reported TGI for O=C1C(NCCN2CCOCC2)=C(Cl)C(=O)c2ncccc21 was 1.9 µM

Reported TGI for Cn1cnc([N+](=O)[O-])c1Sc1nnnn1-c1ccccc1 was 27.9 µM

Reported TGI for CC12CCC(C(Nc3ccccn3)C1=O)C2(C)C (stereo not given) was > 100 µM

Reported TGI for CC(=O)O[C@H]1[C@@H](OC(C)=O)C(C)(C)/C=C/[C@H](C)C(=O)[C@@]2(OC(C)=O)C[C@@](C)(OC(C)=O)[C@H](OC(C)=O)[C@@H]2[C@H]2OC(=O)CC[C@@]2(OC(=O)c2ccccc2)[C@@H]1OCC(C)C was > 100 µM

Reported TGI for Oc1ccc(O)c(CNc2ccccc2)c1 was 36.4 µM

Reported TGI for Nc1ncnc2c1cnn2Cc1ccc(Cl)cc1 was > 100 µM

Reported TGI for CC[C@@]12C=CC(=S)N(CCSc3ccccc3)[C@@H]1c1c(n(S(=O)(=O)c3ccc(OC)cc3)c3ccccc13)CC2 was > 100 µM

Reported TGI for CCN(CC)CCCC(C)NC(=O)c1ccc2c(c1)C(=O)c1ccccc1C2=O (stereo not given) was 66 µM

Reported TGI for COc1cc(OC)c(C(=O)/C=C/c2cccc(OC(C)=O)c2)cc1CC=C(C)C was > 50 µM

Reported TGI for O=C1c2ccccc2-c2nc(/C=C/c3ccccc3)cc3c2c1nc1ccccc13 was > 100 µM

Reported TGI for CC(C)(C)[C@H]1CCC2(OCCO2)[C@](O)(CCCO)C1 was > 100 µM

Reported TGI for S=C(Nc1ccccn1)Nc1ccccc1Cl was > 100 µM
